- procedure.text: 75Q-TubH aggregate inhibition, S. cerevisiae, yeast (AID 1616)
- experimental.parameters: S. cerevisiae 75Q-TubH polyglutamine aggregation suppression; stronger effect = higher value

{"compound": "CC12CCC(CC1=O)C2(C)C (stereo not drawn)", "aggregation suppression score": 1.49}
{"compound": "NC[C@H]1O[C@H](O[C@H]2[C@H](O)[C@@H](O[C@H]3O[C@H](CO)[C@@H](O)[C@H](N)[C@H]3O)[C@H](N)C[C@@H]2N)[C@H](O)[C@@H](O)[C@@H]1O", "aggregation suppression score": 1.68}
{"compound": "CC(=O)C1CCC2C3CC=C4CC(OS(=O)(=O)O)CC[C@]4(C)C3CC[C@]12C (stereo partly drawn)", "aggregation suppression score": 0.286}
{"compound": "CN1C2CC[C@H]1CC(OC(=O)C(O)c1ccccc1)C2 (stereo partly drawn)", "aggregation suppression score": 1.37}
{"compound": "Nc1ncnc2c1ncn2C1OC(CO)[C@H](O)C1O (stereo partly drawn)", "aggregation suppression score": 1.96}
{"compound": "CC1(C)S[C@@H]2[C@H](NC(=O)[C@@H](N)c3ccc(O)cc3)C(=O)N2[C@H]1C(=O)O", "aggregation suppression score": 1.15}
{"compound": "C[C@@H]1OC(Oc2c(-c3ccc(O)c(O)c3)oc3cc(O)cc(O)c3c2=O)[C@H](O)[C@H](O)[C@H]1O (stereo partly drawn)", "aggregation suppression score": 1.5}
{"compound": "CC(C)CC1NC(=O)CNC1=O (stereo not drawn)", "aggregation suppression score": 0.832}
{"compound": "C=C1C(=O)OC2C1CCC1(C)CCC=C(C)C21 (stereo not drawn)", "aggregation suppression score": 0.322}
{"compound": "CC1(C)O[C@@H]2C[C@H]3C4C[C@H](F)C5=CC(=O)C=CC5(C)[C@@]4(F)[C@@H](O)C[C@]3(C)[C@]2(C(=O)CO)O1 (stereo partly drawn)", "aggregation suppression score": 1.43}
{"compound": "O[N+]1=CC=CCC1=S.On1ccccc1=S.[Zn]", "aggregation suppression score": -0.0147}
{"compound": "CCN(CCCc1ccccc1)CCCc1ccccc1 (tested in a mixture with another compound)", "aggregation suppression score": 1.65}
{"compound": "CC(Cc1ccc(O)c(O)c1)C(C)Cc1ccc(O)c(O)c1 (stereo not drawn)", "aggregation suppression score": 0.665}
{"compound": "CCC(=O)O[C@@H](O[P@](=O)(CCCCc1ccccc1)CC(=O)N1C[C@H](C2CCCCC2)C[C@H]1C(=O)O)C(C)C", "aggregation suppression score": 0.527}
{"compound": "CC(NC(=O)C(NC(=O)OCc1ccccc1)C(C)C)C(=O)NC(CC(=O)O)C(=O)OC(F)F (stereo not drawn)", "aggregation suppression score": 1.2}
{"compound": "CC(=O)OCC(=O)[C@@]12OC(C)(C)O[C@@H]1C[C@H]1C3C[C@H](F)C4=CC(=O)C=CC4(C)[C@@]3(F)[C@@H](O)C[C@@]12C (stereo partly drawn)", "aggregation suppression score": 0.953}
{"compound": "C[C@@H]1CC2C3C[C@H](F)C4=CC(=O)C=CC4(C)C3(F)[C@@H](O)CC2(C)C1C(=O)COC(=O)C(C)(C)C (stereo partly drawn)", "aggregation suppression score": 0.899}
{"compound": "COC1=C2C[C@@H](C)C[C@H](OC)[C@H](O)[C@@H](C)/C=C(\\C)[C@@H](OC(N)=O)[C@H](OC)/C=C\\C=C(/C)C(=O)NC(=CC1=O)C2=O", "aggregation suppression score": 1.43}
{"compound": "CCCCC(=O)OC1(C(=O)CO)C(C)CC2C3CCC4=CC(=O)C=CC4(C)[C@@]3(F)[C@@H](O)CC21C (stereo partly drawn)", "aggregation suppression score": 1.32}
{"compound": "CC[C@@]1(O)C[C@H](OC2CC(N(C)C)C(OC3CC(O)C(OC4CCC(=O)C(C)O4)C(C)O3)C(C)O2)c2c(cc3c(c2O)C(=O)c2c(O)cccc2C3=O)[C@H]1C(=O)OC (stereo partly drawn)", "aggregation suppression score": 0.557}
{"compound": "CC1CC2C3CCC4=CC(=O)C=CC4(C)[C@@]3(F)C(O)CC2(C)[C@@]1(O)C(=O)CO (stereo partly drawn)", "aggregation suppression score": 1.3}
{"compound": "OCCS", "aggregation suppression score": 1.5}
{"compound": "NCCNC(=O)c1ccc(Cl)cc1", "aggregation suppression score": 1.48}
{"compound": "CC(=O)N[C@@H](Cc1c[nH]c2ccccc12)C(N)=O", "aggregation suppression score": 1.53}
{"compound": "CCC[C@@H]1C[C@@H](C(=O)NC(C(C)Cl)C2O[C@H](SC)[C@H](O)[C@@H](O)[C@H]2O)N(C)C1 (stereo partly drawn)", "aggregation suppression score": 1.42}
{"compound": "CC(CNC(=O)c1ccccc1)C(=O)OCC(=O)[C@@]12OC(C)(C)O[C@@H]1CC1C3CCC4=CC(=O)C=C[C@]4(C)[C@@]3(F)[C@@H](O)C[C@@]12C (stereo partly drawn)", "aggregation suppression score": 1.21}
{"compound": "CC(Oc1ccccc1)C(=O)NC1C(=O)N2C(C(=O)O)C(C)(C)S[C@H]12 (stereo partly drawn)", "aggregation suppression score": 1.04}
{"compound": "CC1(C)O[C@@H]2CC3C4CCC5=CC(=O)CCC5(C)C4(F)C(O)CC3(C)[C@]2(C(=O)CCl)O1 (stereo partly drawn)", "aggregation suppression score": 1.1}
